TESTED_ON: human CB1 receptor (Homo sapiens)
Construct: expressed in transfected cells; host or cells: SK-N-MC cells, stably transfected with pcDNA3 CB-1 (human); semi-purified membrane pellet
Sequence (P21554 whole entry): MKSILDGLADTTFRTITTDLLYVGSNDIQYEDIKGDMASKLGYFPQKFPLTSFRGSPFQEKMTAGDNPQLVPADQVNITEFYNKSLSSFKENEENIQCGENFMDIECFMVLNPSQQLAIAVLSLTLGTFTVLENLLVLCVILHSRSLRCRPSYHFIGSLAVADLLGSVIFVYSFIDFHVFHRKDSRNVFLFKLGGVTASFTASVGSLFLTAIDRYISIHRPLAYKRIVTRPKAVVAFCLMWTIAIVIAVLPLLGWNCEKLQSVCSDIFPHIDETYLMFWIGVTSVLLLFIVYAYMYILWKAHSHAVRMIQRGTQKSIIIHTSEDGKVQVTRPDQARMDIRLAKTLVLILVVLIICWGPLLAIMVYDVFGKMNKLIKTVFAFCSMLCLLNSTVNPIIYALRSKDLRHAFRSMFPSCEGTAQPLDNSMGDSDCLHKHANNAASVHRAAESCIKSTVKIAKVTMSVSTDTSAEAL
ASSAY_REMARKS: biochemical
Type: binding
Protocol: Binding Assay for CB1 or CB2 Agonists or Inverse Agonists The human CB1 and CB2 receptors were stably expressed in SK-N-MC cells transfected with pcDNA3 CB-1 (human) or pcDNA3 CB-2 (human). The cells were grown in T-180 cell culture flasks under standard cell culture conditions at 37° C. in a 5% CO2 atmosphere. […] The IC50 binding values for compounds tested were calculated by linear regression and were obtained from studies in which varying compound concentrations were used.
OUTCOME_MEASURE: IC50

Write IC50 of CC(NC(=O)c1nn(C2CCCCC2)c2c1CCCC2)C12CC3CC(CC(C3)C1)C2 (stereo not drawn) ; system used: human CB1 receptor (Homo sapiens)
0.723 µM

Report its IC50 with human CB1 receptor (Homo sapiens) as the test system: O=C(NN1CCCCCC1)c1nn(-c2ccc(F)cc2)c2c1CCCC2
0.7 µM

Please indicate recorded IC50 of CC(NC(=O)c1nn(-c2ccc(F)cc2)c2c1CCCC2CCc1ccccc1)C12CC3CC(CC(C3)C1)C2 (stereo not drawn) measured with human CB1 receptor (Homo sapiens).
1.39 µM
